Data credit: PubChem BioAssay AID1159580

Test: chemical genetic growth profiling, strain panel (AID 1159580);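 note: tested at 20 µM; growth read once vehicle control cultures reached saturation at 30 °C; 1 = growth at the plate median or of vehicle wells; lower values mean less growth of the strain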
Conditions: S. cerevisiae deletion strains, growth OD, locus YHR013C, strain ard1, active compounds read low
The campaign covered roughly 5,500 compounds. About 2,000 (36%) were called active. Not shown: some 18% with an inconclusive outcome. The list shows a part of the results.
MEASURED QUANTITY: normalized growth

>  <COMPOUND>
Oc1ccc([C@H]2Oc3cc(O)cc(O)c3C[C@H]2O)cc1

>  <MEASURED QUANTITY>
normalized growth

>  <QUANTITATIVE RESULT>
1.01

$$$$
>  <COMPOUND>
COc1ccc(-c2cc(=O)c3c(O)cc(O)c(-c4cc(-c5cc(=O)c6c(O)cc(O)cc6o5)ccc4OC)c3o2)cc1

>  <MEASURED QUANTITY>
normalized growth

>  <QUANTITATIVE RESULT>
0.993

$$$$
>  <COMPOUND>
CC1CCCC(C)N1NC(=O)c1ccc(Cl)c(S(N)(=O)=O)c1 (configuration not stated)

>  <MEASURED QUANTITY>
normalized growth

>  <QUANTITATIVE RESULT>
1.01

$$$$
>  <COMPOUND>
COc1cc(O)c2c(=O)cc(-c3ccc(OC)c(-c4c(O)cc(O)c5c(=O)cc(-c6ccc(O)cc6)oc45)c3)oc2c1

>  <MEASURED QUANTITY>
normalized growth

>  <QUANTITATIVE RESULT>
1

$$$$
>  <COMPOUND>
CCC(=O)OCC(=O)[C@@]1(OC(=O)CC)[C@@H](C)CC2C3CCC4=CC(=O)C=C[C@]4(C)C3(F)[C@@H](O)C[C@@]21C (some centres not stated)

>  <MEASURED QUANTITY>
normalized growth

>  <QUANTITATIVE RESULT>
1.01

$$$$
>  <COMPOUND>
COP(N)(=O)SC (configuration not stated)

>  <MEASURED QUANTITY>
normalized growth

>  <QUANTITATIVE RESULT>
0.994

$$$$
>  <COMPOUND>
COC(=O)CC1C(C)(C)C(OC(C)=O)[C@@H]2[C@@H](OC(C)=O)[C@]34O[C@@]2(O)[C@]1(C)C3CC[C@]1(C)C4=CC(=O)O[C@H]1c1ccoc1 (some centres not stated)

>  <MEASURED QUANTITY>
normalized growth

>  <QUANTITATIVE RESULT>
1.02

$$$$
>  <COMPOUND>
CC1Cc2ccccc2N1NC(=O)c1ccc(Cl)c(S(N)(=O)=O)c1 (configuration not stated)

>  <MEASURED QUANTITY>
normalized growth

>  <QUANTITATIVE RESULT>
1.02

$$$$
>  <COMPOUND>
CC(C)(C)NCC(O)COc1cccc2c1CCCC2=O (configuration not stated)

>  <MEASURED QUANTITY>
normalized growth

>  <QUANTITATIVE RESULT>
0.988

$$$$
>  <COMPOUND>
COc1cc2c(cc1OC)-c1c(oc3cc(O)cc(O)c3c1=O)CO2

>  <MEASURED QUANTITY>
normalized growth

>  <QUANTITATIVE RESULT>
1.01

$$$$
>  <COMPOUND>
C[C@H]1O[C@@H](O[C@H]2[C@@H](O)C[C@H](O[C@H]3[C@@H](O)C[C@H](O[C@H]4CC[C@]5(C)C6CC[C@]7(C)[C@@H](C8=CC(=O)OC8)CC[C@]7(O)C6CC[C@@H]5C4)O[C@@H]3C)O[C@@H]2C)C[C@H](O)[C@@H]1O (some centres not stated)

>  <MEASURED QUANTITY>
normalized growth

>  <QUANTITATIVE RESULT>
0.984

$$$$
>  <COMPOUND>
COC(=O)[C@H]1[C@H]2C[C@H]3c4[nH]c5cc(OC)ccc5c4CCN3C[C@H]2C[C@@H](OC(=O)c2cc(OC)c(OC)c(OC)c2)[C@@H]1OC

>  <MEASURED QUANTITY>
normalized growth

>  <QUANTITATIVE RESULT>
0.995

$$$$
